- Test system: HCV genotype 1b
- PROTOCOL_DESCRIPTION: HCV 1b replicon luciferase assay
- Assay type: cell-based
- CONDITION_SET: Hepatitis C virus, Huh-7, 48 h, Table 1; Huh7 HCV 1b replicon, luciferase reporter, 48 hours; read-out: 1b EC50
MEASURE_NAME: pEC50
Reminder that pEC50 means the negative base-10 logarithm of the concentration expressed in mol/L.

Q: Name the recorded pEC50 for "Cn1nc(C(=O)NC2CCN(CCN3CCCCC3)CC2)c2ccc(N3CCCCCC3)nc21" .
Ans: 6.28

Q: Entry Cn1nc(-c2nnc(C3CCCN(CC(F)F)C3)o2)c2ccc(N3CCCCCCC3)nc21 (centres unmarked) please
Ans: 5.32

Q: Entry Cn1nc(-c2cnc(C(=O)NC3CCCNC3)s2)c2ccc(N3CCCCCC3)nc21 (centres unmarked) please
Ans: 6.31

Q: Entry "Cn1nc(C(=O)NCc2cccs2)c2cc(N3CCCCC3)cnc21" please
Ans: 5.12

Q: Entry "Cn1nc(C(=O)N[C@H]2CCNC2)c2ccc(N3CCCCCC3)nc21" please
Ans: 5.37

Q: Entry "CCCn1nc(C(=O)NC2CCN(CCN3CCCCC3)CC2)c2ccc(N3CCCCCC3)nc21" please
Ans: 6.12

Q: Entry "Clc1ccc(Cn2nc(COCCN3CCCCC3)c3ccc(N4CCCCCCC4)nc32)cc1" please
Ans: 5.27

Q: Entry CC1CC(NC(=O)c2nn(C)c3nc(N4CCCCCCC4)ccc23)CCN1Cc1ccc(OC(F)F)cc1 (centres unmarked) please
Ans: 5.21

Q: Entry "Cn1nc(NC(=O)c2ccccc2C(F)(F)F)c2ccc(N3CCCCCC3)nc21" please
Ans: 5.39

Q: Entry "Cn1nc(C(=O)NC2CCN(CCCN3CCCCC3)CC2)c2ccc(N3CCCCCC3)nc21" please
Ans: 5.96

Q: Entry "COC[C@@H]1CCCN1c1ccc2c(C(=O)NC3CCNCC3)n[nH]c2n1" please
Ans: 4.77

Q: Entry "Cn1nc(C(=O)NC2CCN(Cc3ccccc3Cl)CC2)c2ccc(N3CCCCCC3)nc21" please
Ans: 5.47

Q: Entry "Cn1nc(NC(=O)c2ccncc2)c2ccc(N3CCCC3)nc21" please
Ans: 5.02

Q: Entry "Cn1nc(C(=O)Nc2cccc(S(N)(=O)=O)c2)c2ccc(N3CCCCCC3)nc21" please
Ans: 5.46

Q: Entry "Cn1nc(C(=O)NC2CCN(Cc3cccc(Cl)c3)CC2)c2ccc(N3CCCCCC3)nc21" please
Ans: 5.47

Q: Entry "Cn1nc(C(=O)NC2CCN(CC(F)F)CC2)c2ccc(N3CCCCCCC3)nc21" please
Ans: 5.55

Q: Entry CCC(CC)Oc1ccc2c(COCC3CCCNC3)nn(Cc3ccc(Cl)cc3)c2n1.O=C(O)C(F)(F)F (centres unmarked) please
Ans: 5.49

----------
- PROTOCOL_DESCRIPTION: Liver microsome stability, mouse
- Type: in vitro ADME, CD-1 mouse
- CONDITION_SET: after 30 min
// classify: if (mouse liver microsome (MLM), % parent remaining < 30 % parent remaining) 1 else -1

Q: Decide: mouse liver microsome (MLM), % parent remaining of "Cn1nc(CCCN2CCCC2)c2ccc(N3CCCCCCC3)nc21" strictly below 30 % parent remaining?
Ans: 1

Q: Entry Cn1nc(C(=O)NC2CCN(CCN3CCCCC3)CC2)c2ccc(N3CCCCCC3)nc21 [EBP1047] please
Ans: 1

Q: Entry "CCC(CC)Oc1ccc2c(C(=O)NC3CCNCC3)n[nH]c2n1" please
Ans: -1

Q: Entry "Cn1nc(C(=O)NC2CCN(CC(F)F)CC2)c2ccc(N3CCCCCC3)nc21" please
Ans: 1

Q: Entry Cn1nc(C(=O)NC2CCN(CCN3CCCCC3)CC2)c2ccc(N3CCCCCC3)nc21 [compound 1047] please
Ans: 1

Q: Entry Cn1nc(C(=O)NC2CCN(CCN3CCCCC3CO)CC2)c2ccc(N3CCCCCC3)nc21 (stereo not shown) please
Ans: 1

Q: Entry Cn1nc(C(=O)NC2CCN(CCN3CCCC3)CC2)c2ccc(N3CCCCCC3)nc21 [compound 1597] please
Ans: -1

Q: Entry Cn1nc(C(=O)NC2CCN(CCN3CCCC3)CC2)c2ccc(N3CCCCCC3)nc21 [EBP1597] please
Ans: -1

Q: Entry "CC(C)N1CCC(NC(=O)c2nn(C)c3nc(N4CCCCCC4)ccc23)CC1" please
Ans: -1

Q: Entry CC1CCCCN1CCOCc1nn(C)c2nc(N3CCCCCC3)ccc12 (stereo not shown) please
Ans: 1

Q: Entry "Cn1nc(C(=O)NC2CCNCC2)c2ccc(N3CCCCCC3)nc21.O=C(O)C(F)(F)F.O=C(O)C(F)(F)F" please
Ans: -1

Q: Entry CC1CCC(C)N1CCOCc1nn(C)c2nc(N3CCCCCC3)ccc12 (stereo not shown) please
Ans: 1

Q: Entry CCN1CCC(NC(=O)c2nn(C)c3nc(N4CCCCCC4)ccc23)CC1 [compound 1595] please
Ans: -1

Q: Entry Cn1nc(CCCN2CCCCC2CO)c2ccc(N3CCCCCCC3)nc21 (stereo not shown) please
Ans: 1

Q: Entry CC1CCCN1CCCc1nn(C)c2nc(N3CCCCCCC3)ccc12 (stereo not shown) please
Ans: 1

Q: Entry CCN1CCC(NC(=O)c2nn(C)c3nc(N4CCCCCC4)ccc23)CC1 [EBP1595] please
Ans: -1

----------
So I've got a bunch of molecules here, and I need their IC50 values.
- ASSAY_SYSTEM: hERG channel (Homo sapiens)
- Construct: host or cells: CHO (Chinese Hamster Ovary), stably transfected
- Sequence (Q12809 whole entry): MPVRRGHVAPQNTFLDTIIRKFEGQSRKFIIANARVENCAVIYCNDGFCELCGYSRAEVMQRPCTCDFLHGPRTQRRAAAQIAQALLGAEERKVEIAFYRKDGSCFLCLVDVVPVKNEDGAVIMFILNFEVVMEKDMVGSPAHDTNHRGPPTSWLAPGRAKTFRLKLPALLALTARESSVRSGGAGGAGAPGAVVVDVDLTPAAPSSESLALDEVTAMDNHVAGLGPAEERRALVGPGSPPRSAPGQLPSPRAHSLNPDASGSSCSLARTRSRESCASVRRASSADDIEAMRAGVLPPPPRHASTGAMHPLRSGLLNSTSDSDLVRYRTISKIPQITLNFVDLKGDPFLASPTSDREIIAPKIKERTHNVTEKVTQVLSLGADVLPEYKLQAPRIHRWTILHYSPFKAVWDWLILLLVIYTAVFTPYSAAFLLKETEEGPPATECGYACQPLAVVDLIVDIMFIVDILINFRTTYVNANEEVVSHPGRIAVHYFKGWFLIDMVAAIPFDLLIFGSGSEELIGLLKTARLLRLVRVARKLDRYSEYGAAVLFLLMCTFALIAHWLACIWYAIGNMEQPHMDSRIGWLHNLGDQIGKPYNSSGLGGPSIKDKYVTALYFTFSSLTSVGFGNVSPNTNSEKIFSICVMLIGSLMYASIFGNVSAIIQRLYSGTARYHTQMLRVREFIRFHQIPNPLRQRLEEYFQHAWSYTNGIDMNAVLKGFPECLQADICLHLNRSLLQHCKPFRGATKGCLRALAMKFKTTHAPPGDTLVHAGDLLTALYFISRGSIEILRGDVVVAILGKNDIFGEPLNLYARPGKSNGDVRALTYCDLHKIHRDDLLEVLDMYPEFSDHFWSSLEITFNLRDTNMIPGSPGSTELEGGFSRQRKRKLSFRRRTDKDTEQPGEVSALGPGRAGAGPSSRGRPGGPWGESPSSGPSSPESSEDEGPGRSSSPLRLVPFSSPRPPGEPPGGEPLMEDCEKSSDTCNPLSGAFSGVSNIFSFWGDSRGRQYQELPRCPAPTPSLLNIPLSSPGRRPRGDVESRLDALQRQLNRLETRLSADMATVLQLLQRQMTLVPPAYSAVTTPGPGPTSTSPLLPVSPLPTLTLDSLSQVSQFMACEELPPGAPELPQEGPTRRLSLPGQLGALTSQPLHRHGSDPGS
- PROTOCOL_DESCRIPTION: hERG channel assay
- Type: cell-based
- CONDITION_SET: CHO cell line expressing hERG, whole cell recordings
- Procedure: The most common mechanism for these adverse events is the inhibition of one or more cardiac potassium channels, in particular hERG. […] Ion channel activity was measured using a stably transfected Chinese Hamster Ovary (CHO) cell line expressing the hERG mRNA. […] Electrophysiology: Whole cell recordings were performed using PX 7000A (Axon Instruments) with VIVA's SealChip™ technology. […] Finally a step back to −50 mV for 5 seconds removed activation and the deactivating tail current was recorded. […]

Q: Name the recorded IC50 for "O=C(NC1CCNCC1)c1n[nH]c2nc(O)ccc12" .
Ans: > 10 µM

Q: Entry "CCN1CCC(NC(=O)c2nn(C)c3nc(N4CCCCCC4)ccc23)CC1" please
Ans: 1.1 µM

Q: Entry "Cn1nc(C(=O)NC2CCN(CC3CCCCC3)CC2)c2ccc(N3CCCCCCC3)nc21" please
Ans: > 10 µM

Q: Entry "O=C(NC1CCNCC1)c1n[nH]c2nc(N3CCCCCC3)ccc12" please
Ans: 1.34 µM

Q: Entry CCC(CC)Oc1ccc2c(COCC3CCCNC3)nn(Cc3ccc(Cl)cc3)c2n1.O=C(O)C(F)(F)F (stereo not shown) please
Ans: > 10 µM

Q: Entry "Cn1nc(C(=O)Nc2ccncc2)c2ccc(N3CCCCCC3)nc21" please
Ans: > 10 µM

Q: Entry O=C(NCC1CCCNC1)c1n[nH]c2nc(N3CCCCCC3)ccc12 (stereo not shown) please
Ans: 8.8 µM

Q: Entry O=C(Nc1nn(Cc2ccc(Cl)cc2)c2nc(N3CCCCCC3)ccc12)C1CCCNC1 (stereo not shown) please
Ans: > 10 µM

Q: Entry "Cn1nc(N)c2ccc(N3CCCCCC3)nc21" please
Ans: > 10 µM

Q: Entry "O=C(NC1CCNCC1)c1n[nH]c2nc(OC3CCCCC3)ccc12" please
Ans: > 10 µM

Q: Entry "O=C(NC1CCNCC1)c1nn(C(=O)C2CCCCC2)c2nc(N3CCCCCC3)ccc12.O=C(O)C(F)(F)F.O=C(O)C(F)(F)F.O=C(O)C(F)(F)F" please
Ans: > 10 µM

Q: Entry "Cn1nc(C(=O)NC2CCN(CC3CCCCC3)CC2)c2ccc(N3CCCCCC3)nc21" please
Ans: 0.88 µM

Q: Entry "Cn1nc(C(=O)NC2CCN(CCN3CCCC3)CC2)c2ccc(N3CCCCCC3)nc21" please
Ans: 9.1 µM

----------
- PROTOCOL_DESCRIPTION: In vivo rat pharmacokinetic studies
- CONDITION_SET: plasma, 20 mg/kg; rat, PO 20 mpk, 0.25 h; read-out: Plasma
So I've got a bunch of compounds here, and I need their concentration at 0.25 h values.
Lab book: enter the figure in ng/mL, no units written.

Q: Name the recorded concentration at 0.25 h for Cn1nc(C(=O)NC2CCN(CCN3CCCCC3)CC2)c2ccc(N3CCCCCC3)nc21 [EBP1047] .
Ans: 5.1

Q: Entry CC(C)N1CCC(NC(=O)c2nn(C)c3nc(N4CCCCCC4)ccc23)CC1 [EBP1604] please
Ans: 0.8

Q: Entry CCN1CCC(NC(=O)c2nn(C)c3nc(N4CCCCCC4)ccc23)CC1 [EBP1595] please
Ans: 1.6
